Item-by-item account of logP
- protocol.notes: logP determination via retention times, calibrated with unbranched alkan-2-ones
- Assay type: physicochemical
- test.settings: method *: HPLC reversed-phase C 18, temperature 40° C.; mobile phase 0.1% aqueous formic acid and acetonitrile; linear gradient 10% to 95% acetonitrile

The examples below pair each entry with its known result.
molecule_smiles=O=S(=O)(c1cccc(Nc2ncc(F)c(NC3CC3)n2)c1)N1CCCCC1 measurement_name=logP test_result=1.61*
molecule_smiles=CNC(=O)c1ccc(Nc2ncc(C(F)(F)F)c(NC3CC3)n2)cc1 measurement_name=logP test_result=1.78*;
molecule_smiles=O=C(NC1CC1)c1cccc(Nc2ncc(Br)c(NC3CC3)n2)c1 measurement_name=logP test_result=1.49*
molecule_smiles=COC(=O)Nc1ccc(Nc2ncc(F)c(NC3CC3)n2)cc1 measurement_name=logP test_result=1.28*

Switching to the query record.
**Q:** Could you tell me which logP is on file for CCN(C(C)=O)c1ccc(Nc2ncc(F)c(NC3CC3)n2)cc1 ?
**A:** 1.38*

###

Item-by-item account of logP
- protocol.notes: logP determination via retention times, calibrated with unbranched alkan-2-ones
- Type: physicochemical
- test.settings: method *: HPLC reversed-phase C18, 40° C., 0.1% aqueous formic acid and acetonitrile, linear gradient 10% to 95% acetonitrile

The examples below pair each entry with its known result.
molecule=COc1cc(Nc2ncc(C)c(NC3CC3)n2)cc(OC)c1OC test_result=1.47*
molecule=O=S(=O)(Cc1ccc(Nc2ncc(Cl)c(NC3CC3)n2)cc1)Nc1ccccc1 test_result=2.18*
molecule=CC(=O)c1ccc(Nc2ncc(Cl)c(NC3CC3)n2)cc1 test_result=1.99*
molecule=O=C1CCCN1Cc1cccc(Nc2ncc(Cl)c(NC3CC3)n2)c1 test_result=1.45*
molecule=O=C1CCCN1c1ccc(Nc2ncc(Br)c(NC3CC3)n2)cc1 test_result=1.49*

Switching to the query record.
**Q:** Could you tell me which logP is on file for CC(C)(C)NC(=O)c1ccc(Nc2ncc(Br)c(NCC3CC3)n2)cc1 ?
**A:** 2.3*

###

- protocol.notes: logP determination via retention times, calibrated with unbranched alkan-2-ones
- Format: physicochemical
- test.settings: method **: HPLC reversed-phase C 18, temperature 43° C.; mobile phase 0.1% aqueous phosphoric acid and acetonitrile; linear gradient 10% to 95% acetonitrile
measurement.name: logP

The examples below pair each entry with its known result.
molecule_smiles=CC(C)NC(=O)Nc1ccc(Nc2ncc(Cl)c(NC3CC3)n2)cc1 measurement_name=logP test_result=1.32**
molecule_smiles=CC(=O)c1cccc(Nc2ncc(C(F)(F)F)c(NC3CC3)n2)c1 measurement_name=logP test_result=2.72**
molecule_smiles=CC(=O)Nc1ccc(Nc2ncc(C(F)(F)F)c(NC3CC3)n2)cc1Cl measurement_name=logP test_result=2.27**
molecule_smiles=CNC(=O)Oc1cccc(Nc2ncc(C(F)(F)F)c(NC3CC3)n2)c1 measurement_name=logP test_result=2.13**

Switching to the query record.
**Q:** Could you tell me which logP is on file for CSc1ccc(Nc2ncc(C(F)(F)F)c(NC3CC3)n2)cc1 ?
**A:** 3.35**

###

- protocol.notes: logP determination via retention times, calibrated with unbranched alkan-2-ones
- Format: physicochemical
- test.settings: method **: HPLC reversed-phase C 18, 43° C., 0.1% aqueous phosphoric acid and acetonitrile, linear gradient 10% to 95% acetonitrile
Item-by-item account of logP

The examples below pair each entry with its known result.
molecule_smiles=CS(=O)(=O)c1ccc(Nc2ncc(Cl)c(NC3CC3)n2)cc1 test_result=1.75**
molecule_smiles=NS(=O)(=O)c1ccc(Nc2ncc(F)c(NC3CC3)n2)cc1 test_result=0.95**
molecule_smiles=O=S(=O)(c1cccc(Nc2ncc(Cl)c(NC3CC3)n2)c1)N1CCOCC1 test_result=2.13**
molecule_smiles=O=[N+]([O-])c1ccc(Nc2ncc(Cl)c(NC3CC3)n2)cc1 test_result=2.9**

**Q:** Could you tell me which logP is on file for CC(=O)NS(=O)(=O)c1ccc(Nc2ncc(Cl)c(NC3CC3)n2)cc1 ?
**A:** 1.64**

###

Item-by-item account of logP
- protocol.notes: logP determination via retention times, calibrated with unbranched alkan-2-ones
- Type: physicochemical
- test.settings: HPLC reversed-phase C 18, EEC Directive 79/831 Annex V.A8; method *: 40° C., 0.1% aqueous formic acid and acetonitrile, linear gradient 10% to 95% acetonitrile
Marks after values point to notes of the source that are not given here.

The examples below pair each entry with its known result.
compound=CC(C)(C)c1cccc(Nc2ncc(Br)c(NC3CC3)n2)c1 test_result=3.14*
compound=Brc1cnc(Nc2ccccc2)nc1NC1CC1 test_result=2.56*
compound=O=C1OCCN1c1cccc(Nc2ncc(Cl)c(NCC3CC3)n2)c1 test_result=1.63*
compound="CCSC(C)c1cccc(Nc2ncc(Cl)c(NC3CC3)n2)c1 (stereo not shown)" test_result=2.82*
compound="CSC(C)c1cccc(Nc2ncc(C(F)(F)F)c(NC3CC3)n2)c1 (stereo not shown)" test_result=3.81*

**Q:** Could you tell me which logP is on file for COC(C)c1cccc(Nc2ncc(C(F)(F)F)c(NC3CC3)n2)c1 (stereo not shown) ?
**A:** 3.16*

**Q:** Next compound: O=C1CCCCN1c1cccc(Nc2ncc(C(F)(F)F)c(NC3CC3)n2)c1
**A:** 2.18*

**Q:** Next compound: CSC(C)c1cccc(Nc2ncc(Cl)c(NC3CC3)n2)c1 (stereo not shown)
**A:** 2.52*

**Q:** Next compound: O=C1COCCN1c1cccc(Nc2ncc(Cl)c(NCC3CC3)n2)c1
**A:** 1.31*

**Q:** Next compound: CSC(C)c1cccc(Nc2ncc(Br)c(NC3CC3)n2)c1 (stereo not shown)
**A:** 2.63*

**Q:** Next compound: CC(=O)Cc1cccc(Nc2ncc(C(F)(F)F)c(NC3CC3)n2)c1
**A:** 2.42*

**Q:** Next compound: O=C1COCCN1c1cccc(Nc2ncc(Br)c(NC3CC3)n2)c1
**A:** 1.24*

**Q:** Next compound: CC(C)(C)c1ccc(Nc2ncc(Cl)c(NC3CC3)n2)cc1
**A:** 2.92*

**Q:** Next compound: OC(c1cccc(Nc2ncc(Br)c(NC3CC3)n2)c1)C(F)(F)F (stereo not shown)
**A:** 1.94*

**Q:** Next compound: CN(C)C(=O)c1ccc(Nc2ncc(C(F)(F)F)c(NC3CC3)n2)cc1
**A:** 2.08*

**Q:** Next compound: N#CCc1cc(Nc2ncc(Cl)c(NCC3CC3)n2)ccc1F
**A:** 1.87*

**Q:** Next compound: N#CCc1cc(Nc2ncc(Cl)c(NC3CC3)n2)ccc1F
**A:** 1.76*

**Q:** Next compound: O=C1CCCCN1c1cccc(Nc2ncc(F)c(NC3CC3)n2)c1
**A:** 1.16*

**Q:** Next compound: Clc1cnc(Nc2ccccc2)nc1NCC1CC1(Cl)Cl (stereo not shown)
**A:** 2.46*

###

Item-by-item account of logP
- protocol.notes: logP determination via retention times, calibrated with unbranched alkan-2-ones
- Format: physicochemical
- test.settings: method *: HPLC, reversed-phase C 18, 40° C., mobile phase 0.1% aqueous formic acid and acetonitrile, linear gradient from 10% to 95% acetonitrile

The examples below pair each entry with its known result.
molecule="Clc1cnc(Nc2ccc3c(c2)CCC3)nc1NC1CC1 [compound 1000]" test_result=2.11*
molecule="CCCSc1cccc(Nc2ncc(Cl)c(N(C)C3CC3)n2)c1 [compound 983]" test_result=4.88*
molecule="CCc1cccc(Nc2ncc(C(F)(F)F)c(NC3CC3)n2)c1 [compound 1034]" test_result=3.67*
molecule="COCc1cc(COC)cc(Nc2ncc(Cl)c(NC3CC3)n2)c1 [compound 1012]" test_result=1.76*

**Q:** Could you tell me which logP is on file for CCCS(=O)(=O)c1cccc(Nc2ncc(C(F)(F)F)c(NCC3CC3)n2)c1 [compound 1068] ?
**A:** 3.25*

###

- protocol.notes: logP determination via retention times, calibrated with unbranched alkan-2-ones
- Type: physicochemical
- test.settings: HPLC reversed-phase C 18, EEC Directive 79/831 Annex V.A8; method **: 43° C., 0.1% aqueous phosphoric acid and acetonitrile, linear gradient 10% to 95% acetonitrile
Marks after values point to notes of the source that are not given here.
measurement.name: logP

The examples below pair each entry with its known result.
molecule_smiles=CN1CCN(c2ccc(Nc3ncc(Cl)c(NC4CC4)n3)cc2C(F)(F)F)CC1 test_result=1.38**
molecule_smiles=Cc1nc(Nc2cccc(N3CCCC3=O)c2)nc(NC2CC2)c1Cl test_result=1.47**
molecule_smiles=COCc1cccc(Nc2nc(C)c(Cl)c(NC3CC3)n2)c1 test_result=1.67**

**Q:** Could you tell me which logP is on file for Cc1nc(Nc2ccc(N3CCOC3=O)cc2)nc(NC2CC2)c1Cl ?
**A:** 1.31**

**Q:** Next compound: CON(C(C)=O)c1cccc(Nc2ncc(Br)c(NC3CC3)n2)c1
**A:** 1.68**
